protocolDetails: Brain and plasma concentrations in mice after intraperitoneal administration (LC-MS-MS), non-compartmental analysis
Format: in vivo
measurementContext: male, Swiss-Webster, mouse, brain and plasma (unbound), ip, 10 mg kg^-1, 10 mg kg^-1 i.p., mice; read-out: K p,uu,brain (AUC0–∞,brain,u/AUC0–∞,p,u)
propertyLabel: Kp uu

Exam item: Kindly indicate its recorded Kp uu. Item: CC(C)[C@@H](CN1CC[C@@](C)(c2cccc(O)c2)[C@@H](C)C1)NC(=O)[C@H]1Cc2ccc(O)cc2CN1 [JDTic]
Marked response: ≤ 1.4

Cited source: paper PMC3411462
